- Target desc: T1, human β-klotho (human, UniProt Q86Z14 1-1044)
- T1 sequence (looked up): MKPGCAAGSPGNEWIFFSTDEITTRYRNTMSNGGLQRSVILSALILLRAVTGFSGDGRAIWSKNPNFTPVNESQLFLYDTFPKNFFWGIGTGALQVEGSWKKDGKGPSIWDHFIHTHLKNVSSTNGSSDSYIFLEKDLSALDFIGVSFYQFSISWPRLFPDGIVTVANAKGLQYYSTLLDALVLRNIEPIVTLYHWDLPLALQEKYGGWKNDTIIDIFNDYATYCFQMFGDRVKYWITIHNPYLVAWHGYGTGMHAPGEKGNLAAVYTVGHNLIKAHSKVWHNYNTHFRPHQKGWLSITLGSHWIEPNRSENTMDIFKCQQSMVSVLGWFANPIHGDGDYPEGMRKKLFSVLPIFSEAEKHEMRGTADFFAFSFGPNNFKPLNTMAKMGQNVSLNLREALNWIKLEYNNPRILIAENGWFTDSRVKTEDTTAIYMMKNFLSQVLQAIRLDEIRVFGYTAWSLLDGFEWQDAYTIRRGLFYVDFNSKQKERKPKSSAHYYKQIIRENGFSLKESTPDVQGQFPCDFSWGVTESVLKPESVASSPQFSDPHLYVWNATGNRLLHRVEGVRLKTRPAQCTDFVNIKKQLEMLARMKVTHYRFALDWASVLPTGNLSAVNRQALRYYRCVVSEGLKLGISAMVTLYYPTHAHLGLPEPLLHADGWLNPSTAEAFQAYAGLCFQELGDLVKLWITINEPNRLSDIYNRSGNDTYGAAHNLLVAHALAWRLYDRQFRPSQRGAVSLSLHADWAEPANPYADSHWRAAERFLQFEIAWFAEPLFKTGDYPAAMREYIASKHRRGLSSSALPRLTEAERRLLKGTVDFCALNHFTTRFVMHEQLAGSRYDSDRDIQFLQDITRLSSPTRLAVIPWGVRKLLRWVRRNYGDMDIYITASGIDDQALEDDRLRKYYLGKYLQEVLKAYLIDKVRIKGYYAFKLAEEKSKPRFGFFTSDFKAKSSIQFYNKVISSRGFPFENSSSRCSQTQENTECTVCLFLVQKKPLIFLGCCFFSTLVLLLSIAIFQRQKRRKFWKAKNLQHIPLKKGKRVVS
- Protocol notes: cell-based or functional assay
Measured EC50 (nM), pERK In Cell Western accompanies every entry in the list below.
Entry rule: numbers only, all in nM.

Some solved cases for reference:
Binder	EC50 (nM), pERK In Cell Western
hFGF21(33-209)-V5 (ligand) DSSPLLQFGGQVRQRYLYTDDDQQTEAHLEIREDGTVGGAAHQSPESLLQLKALKPGVIQILGVKASRFLCQKPDGALYGSLHFDPEACSFRELLLENGYNVYQSEAHGLPLHLPGNRSPHRDPASQGPARFLPLPGLPPALPEPPGILAPQPPDVGSSDPLAMVGPSQARSPSYAS	26
hFGF21(33-209)-V53 (ligand) DSSPLLQFGGQVRQRYLYTDDAQETEAHLEIREDGTVGGAAHQSPESLLELKALKPGVIQILGVKTSRFLCQKPDGALYGSLHFDPEACSFRELLLENGYNVYQSEAHGLPLHLPGNRSPHRDPASQGPARFLPLPGLPPAPPEPPGILAPQPPDVGSSDPLAMVGPSQGRSPSYAS	4.2

Lab book: EC50 (nM), pERK In Cell Western of hFGF21(33-209)-V7 (ligand) DSSPLLQFGGQVRQRYLYTDDAQETEAHLEIREDGTVGGAAHQSPESLLQLKALKPGVIQILGVKASRFLCQKPDGALYGSLHFDPEACSFRELLLENGYNVYQSEAHGLPLHLPGNRSPHRDPASQGPARFLPLPGLPPALPEPPGILAPQPPDVGSSDPLAMVGPSQARSPSYAS noted as 19
